system: MDA-MB-231; experiment: Antiproliferative activity against human MDA-MB-231 cells assessed as reduction in cell viability incubated for 72 hrs by WST8 assay; type: functional, cell-based; details: MDA-MB-231, 72 h
Labelling: IC50 reported below 3000 nM becomes rule met; at or above becomes rule not met.

Prompt: Check if IC50 falls below 3000 nM for CN1CCN(CCCOc2ccc3ncnc(Nc4ccc(Oc5cccc(F)c5)c(Cl)c4)c3c2)CC1 .
Completion: rule met

Prompt: Check if IC50 falls below 3000 nM for CN1CCN(CC(=O)Nc2ccc3ncnc(Nc4ccc(Oc5cccc(C(F)(F)F)c5)c(Cl)c4)c3c2)CC1 .
Completion: rule met

Prompt: Check if IC50 falls below 3000 nM for CN(C)CC(=O)Nc1ccc2ncnc(Nc3ccc(Oc4cccc(C(F)(F)F)c4)c(Cl)c3)c2c1 .
Completion: rule met

Prompt: Check if IC50 falls below 3000 nM for CN1CCN(CCCOc2ccc3ncnc(Nc4ccc(OCc5cccc(F)c5)c(Cl)c4)c3c2)CC1 .
Completion: rule met

Prompt: Check if IC50 falls below 3000 nM for CN1CCN(CC(=O)Nc2ccc3ncnc(Nc4ccc(Oc5cccc(F)c5)c(Cl)c4)c3c2)CC1 .
Completion: rule not met

This collection of values is drawn from ChEMBL document CHEMBL4715878.
